Source listed as ChEMBL document CHEMBL2034847.

- Study target: Glycylpeptide N-tetradecanoyltransferase 1 (Homo sapiens)
- Sequence (P30419 whole entry): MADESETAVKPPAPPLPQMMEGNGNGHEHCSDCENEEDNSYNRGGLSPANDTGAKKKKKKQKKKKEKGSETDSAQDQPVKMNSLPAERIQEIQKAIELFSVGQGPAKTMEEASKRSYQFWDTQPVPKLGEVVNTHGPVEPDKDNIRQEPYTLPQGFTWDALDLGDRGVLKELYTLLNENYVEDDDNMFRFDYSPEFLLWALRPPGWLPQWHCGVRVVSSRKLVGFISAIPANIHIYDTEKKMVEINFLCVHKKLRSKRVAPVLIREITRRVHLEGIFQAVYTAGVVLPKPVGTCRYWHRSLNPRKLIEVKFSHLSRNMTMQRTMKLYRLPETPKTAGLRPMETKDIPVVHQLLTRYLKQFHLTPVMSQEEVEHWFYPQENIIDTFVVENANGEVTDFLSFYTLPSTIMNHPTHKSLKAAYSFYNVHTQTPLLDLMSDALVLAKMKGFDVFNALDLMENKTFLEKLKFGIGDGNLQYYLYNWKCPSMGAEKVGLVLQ
Assay metric: Ki

Please review the entries below; each comes with its answer.
C#CCCSc1c(CCCC)c(C)nc2ccc(OC)cc12    > 100 µM
CCCCc1c(C)nc2ccc(OC)cc2c1SCCCO    > 100 µM
CCOC(=O)c1c(CC)nc2ccccc2c1SCCC#N    47.9 µM

Hello, please tell me recorded Ki for this one: `CCOC(=O)c1cnc2ccc(Cl)cc2c1SCCC#N`
> 100 µM

Tell me its Ki given `CCCCc1c(C)nc2ccc(OC)cc2c1SCCCC#N` as the entry.
47.6 µM

Using the record for `CCOC(=O)c1cnc2ccccc2c1SCCC#N` , state its measured Ki.
> 100 µM

Specify Ki for `CCCCc1c(C)nc2ccc(Br)cc2c1SCCC#N` and stop.
> 100 µM

Look up and state reported Ki for `CCCCc1c(C)nc2ccccc2c1SCCC#N`
> 100 µM

Find the measured Ki of `CCCc1nc2ccccc2c(SCCC#N)c1C(=O)OCC` and report it.
> 100 µM

Give reported Ki value for `COc1ccc2nc(C)cc(SCCC#N)c2c1`
> 100 µM
